# growth per record follows
- Test system: 786-0 renal
- Test: NCI-60 one-dose screen, 48 h (100 = growth as untreated, 0 = no growth, -100 = all killed)
- Settings: 10 µM unless noted
- Experimental: Cells are grown in 96 well plates and exposed to the test compound for 48 hours. Compounds are tested at a single concentration, which is 10^-5 M for most compounds. The reported endpoint is percent growth (GI% or GIPRCNT), where numbers from 0 - 100% represent growth inhibition, and numbers from -100% - 0 represent cell death. For example, a value of 40 represents 60% growth inhibition. A value of 0 means no net growth occurred over the course of the experiment. […]
The panel holds about 83,000 compounds, 20% with a hit somewhere; the sample as a whole holds those more often.
State just the number; it will be interpreted in %.

# growth of CCCCCCCCCCCCCCCCCC1=NCCN1CS(=O)(=O)O = 74.5

Measured growth, CCN(CC)C(=O)C1(C)CCCC2(C)c3cc(OC(C)=O)ccc3CCC12 (stereo not given) : 92

Sample O=C1C(Cl)=C(SC2=NCCN2)C(=O)c2ccccc21 ; growth observed: 99.2

Form field growth, entry CC(C)(C)c1cc(C[P+](c2ccc(Cl)cc2)(c2ccc(Cl)cc2)c2ccc(Cl)cc2)cc(C(C)(C)C)c1O : 99.1

Please look at the following compound next.
growth in this record for Oc1ccc(N=Nc2ccc(N=Nc3ccccc3)cc2)cc1 : 38.3
